Data provenance is patent US20180185504A1.

Target: T1, hPRLR.mFc (soluble dimeric human PRLR) (human)
T1 construct: dimeric PRLR construct
T1 chain: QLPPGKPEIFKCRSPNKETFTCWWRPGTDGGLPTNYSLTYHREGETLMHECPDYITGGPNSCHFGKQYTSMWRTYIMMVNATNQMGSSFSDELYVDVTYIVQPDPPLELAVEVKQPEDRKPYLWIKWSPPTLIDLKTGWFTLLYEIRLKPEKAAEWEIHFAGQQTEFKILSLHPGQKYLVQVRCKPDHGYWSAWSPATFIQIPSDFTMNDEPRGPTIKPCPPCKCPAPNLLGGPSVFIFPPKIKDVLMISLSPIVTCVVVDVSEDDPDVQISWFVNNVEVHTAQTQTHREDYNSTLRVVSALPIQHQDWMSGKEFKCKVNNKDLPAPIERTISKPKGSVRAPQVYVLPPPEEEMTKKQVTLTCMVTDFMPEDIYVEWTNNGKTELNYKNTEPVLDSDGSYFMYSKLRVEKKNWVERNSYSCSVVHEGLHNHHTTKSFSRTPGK
Assay: SPR Biacore, 25 C, mAb capture
MEASURED PROPERTY: koff

Request: Looking for the measured koff of H1H6966N (antibody, human IgG1, V domains shown, Tested with human IgG1 Fc (H1H); also called H2M6966N) VH: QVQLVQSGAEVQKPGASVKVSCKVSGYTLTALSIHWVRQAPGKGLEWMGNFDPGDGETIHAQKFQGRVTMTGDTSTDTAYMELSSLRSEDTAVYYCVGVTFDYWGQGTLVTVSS VL: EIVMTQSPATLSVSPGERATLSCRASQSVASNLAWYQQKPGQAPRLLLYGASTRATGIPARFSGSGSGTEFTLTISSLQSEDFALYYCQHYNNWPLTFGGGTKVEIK , can you help?
Result: 4.08e-05 s⁻¹

Request: Which value of koff has been reported for H1H6762P (antibody, human IgG1, V domains shown, Human IgG1 Fc (H1H)) VH: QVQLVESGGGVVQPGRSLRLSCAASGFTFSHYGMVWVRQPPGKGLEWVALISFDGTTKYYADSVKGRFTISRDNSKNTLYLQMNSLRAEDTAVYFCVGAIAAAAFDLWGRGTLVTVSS VL: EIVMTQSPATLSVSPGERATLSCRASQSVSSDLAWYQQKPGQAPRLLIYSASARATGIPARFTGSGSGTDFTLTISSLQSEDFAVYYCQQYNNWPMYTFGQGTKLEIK in the records?
Result: 6.45e-05 s⁻¹

Request: Look at this binder and give its reported koff. H1H6782P (antibody, human IgG1, V domains shown, Human IgG1 Fc (H1H)) VH: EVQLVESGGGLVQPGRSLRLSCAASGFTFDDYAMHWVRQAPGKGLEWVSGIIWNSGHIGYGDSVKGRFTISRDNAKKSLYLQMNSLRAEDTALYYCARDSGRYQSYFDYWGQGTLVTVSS VL: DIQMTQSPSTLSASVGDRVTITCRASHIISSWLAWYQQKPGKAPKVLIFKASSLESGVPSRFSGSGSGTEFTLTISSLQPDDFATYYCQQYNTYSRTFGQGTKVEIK
Result: 7.13e-05 s⁻¹

Request: What value of koff has been reported for the following binder? H1H6960N (antibody, human IgG1, V domains shown, Tested with human IgG1 Fc (H1H); also called H2M6960N) VH: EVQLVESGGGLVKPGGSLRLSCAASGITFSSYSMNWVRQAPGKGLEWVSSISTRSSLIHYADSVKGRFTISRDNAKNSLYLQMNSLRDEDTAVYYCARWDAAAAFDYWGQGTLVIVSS VL: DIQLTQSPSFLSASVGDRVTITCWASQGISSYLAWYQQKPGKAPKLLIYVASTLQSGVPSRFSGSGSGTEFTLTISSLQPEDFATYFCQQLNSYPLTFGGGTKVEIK
Result: 3.56e-05 s⁻¹

Request: Fill in the blank: the reported koff of H1H6801P (antibody, human IgG1, V domains shown, Human IgG1 Fc (H1H)) VH: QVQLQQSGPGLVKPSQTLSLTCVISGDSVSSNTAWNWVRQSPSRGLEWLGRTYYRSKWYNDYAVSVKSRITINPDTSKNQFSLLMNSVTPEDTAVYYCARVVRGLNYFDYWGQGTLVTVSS VL: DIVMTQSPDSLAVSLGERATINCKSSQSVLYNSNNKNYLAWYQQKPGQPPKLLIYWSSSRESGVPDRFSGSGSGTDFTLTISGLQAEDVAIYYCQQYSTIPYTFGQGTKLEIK is ____.
Result: 0.000109 s⁻¹
